So I've got a bunch of compounds here, and I need their Ki values.
Biological target: Adenosine deaminase (Homo sapiens)
Sequence (P00813 whole entry): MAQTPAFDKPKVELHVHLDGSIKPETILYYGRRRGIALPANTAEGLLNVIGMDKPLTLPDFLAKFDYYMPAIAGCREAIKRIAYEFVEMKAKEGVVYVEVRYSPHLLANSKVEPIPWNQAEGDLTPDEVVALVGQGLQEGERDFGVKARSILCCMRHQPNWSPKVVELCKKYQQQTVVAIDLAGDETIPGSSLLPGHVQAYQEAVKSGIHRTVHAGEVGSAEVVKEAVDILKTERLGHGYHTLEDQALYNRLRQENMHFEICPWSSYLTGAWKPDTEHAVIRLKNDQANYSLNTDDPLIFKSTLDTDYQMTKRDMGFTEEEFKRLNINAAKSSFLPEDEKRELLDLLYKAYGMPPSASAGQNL
// note: answer is a bare numeric in pM

Need Ki of OCC1OC(n2cnc3c2N=CCC[C@H]3O)C[C@H]1O (single isomer, unassigned) , thanks.
2.5

Need Ki of OCC1OC(n2cnc3c2N=CCC[C@H]3O)[C@@H](O)[C@H]1O (single isomer, unassigned) , thanks.
10
